molecular target: human dopamine D3 receptor (hD3R) (Homo sapiens, UniProt P35462); test: Human D3 receptor binding assay ([^3H]-7-OH-DPAT); settings: CHO cells expressing hD3R, geometric mean of 2-5 determinations unless marked b (single determination), read-out: hD3 in CHO cells Ki
Sequence (P35462 whole entry): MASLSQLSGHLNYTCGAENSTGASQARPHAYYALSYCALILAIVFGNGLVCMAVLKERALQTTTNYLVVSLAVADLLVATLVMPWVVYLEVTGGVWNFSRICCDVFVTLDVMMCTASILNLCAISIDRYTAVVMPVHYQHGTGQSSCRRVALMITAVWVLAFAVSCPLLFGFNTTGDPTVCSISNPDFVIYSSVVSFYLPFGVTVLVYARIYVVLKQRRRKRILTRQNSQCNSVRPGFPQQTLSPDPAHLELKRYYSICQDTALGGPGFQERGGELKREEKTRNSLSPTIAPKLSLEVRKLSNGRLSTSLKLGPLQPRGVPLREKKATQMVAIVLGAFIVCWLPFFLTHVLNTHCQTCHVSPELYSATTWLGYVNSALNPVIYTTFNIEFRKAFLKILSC
Label 1 when Ki < 2 nM; otherwise 0.

compound="CCO[C@H]1C[C@@H](c2ccc(S(=O)(=O)Nc3cc4c(nc3OC)CCN(C)CC4)cc2)C1 [Example 21]" class_label=1
compound="COc1nc2c(cc1NS(=O)(=O)c1ccc(C3CC(F)(F)CCO3)cc1)CCN(C)CC2 (single isomer, unassigned) [Example 41]" class_label=0
compound="CCN1CCc2cc(NS(=O)(=O)c3ccc(C4CCCCC4)nc3)c(OC)nc2CC1 [Example 114]" class_label=0
compound="COc1nc2c(cc1NS(=O)(=O)c1ccc(O[C@H]3CCOC3)cc1)CCN(C)CC2 [Example 91]" class_label=0
compound="COc1nc2c(cc1NS(=O)(=O)c1ccc(OC3CCCC3)cc1)CCN(C)CC2 [Example 46]" class_label=1
compound="COc1nc2c(cc1NS(=O)(=O)c1ccc(C(F)(F)C3CCCC3)nc1)CCN(C)CC2 [Example 47]" class_label=0
compound="CCOC1CC(c2ccc(S(=O)(=O)Nc3cc4c(nc3OC)CCN(CC)CC4)cc2)C1 (centres unmarked) [Example 121]" class_label=0
compound="COc1nc2c(cc1NS(=O)(=O)c1ccc([C@H]3C[C@H](OCCF)C3)cc1)CCN(C)CC2 [Example 3]" class_label=1

* * *

target: human dopamine D3 receptor (hD3R) (Homo sapiens); assay: Human D3 receptor binding assay ([^3H]-7-OH-DPAT); settings: CHO cells expressing hD3R, geometric mean of 2-5 determinations unless marked b (single determination), read-out: hD3 in CHO cells Ki
pKi: −log10 of the molar value.
value.type: pKi

compound=CCN1CCc2cc(NS(=O)(=O)c3ccc(C4(F)CCCCC4)nc3)c(OC)nc2CC1 observed_result=8.63
compound=CCN1CCc2cc(NS(=O)(=O)c3ccc4c(c3)CCCO4)c(OC(C)C)nc2CC1 observed_result=8.06
compound=COc1nc2c(cc1NS(=O)(=O)c1ccc([C@H](C)OC)cc1)CCN(C)CC2 observed_result=8.78
compound=COc1nc2c(cc1NS(=O)(=O)c1ccc(OC3CCCC3)nc1)CCN(C)CC2 observed_result=9.15
compound=CCN1CCc2cc(NS(=O)(=O)c3ccc([C@H]4C[C@@H](OC)C4)cc3)c(OC)nc2CC1 observed_result=8.58
compound="COc1nc2c(cc1NS(=O)(=O)c1ccc(C3CC(F)(F)CCO3)cc1)CCN(C)CC2 (racemic) [Example 40]" observed_result=8.59
compound=COc1nc2c(cc1NS(=O)(=O)c1cnc(OC3CCC3)c(C)c1)CCN(C)CC2 observed_result=8.73
compound=COc1nc2c(cc1NS(=O)(=O)c1ccc([C@H]3CCCCO3)cc1)CCNCC2 observed_result=8.11

* * *

target: human dopamine D3 receptor (hD3R) (Homo sapiens, UniProt P35462); assay: Human D3 receptor binding assay ([^3H]-7-OH-DPAT); details: CHO cells expressing hD3R, geometric mean of 2-5 determinations unless marked b (single determination), read-out: hD3 in CHO cells Ki
pKi: −log10 of the molar value.
Label condition met for high-side pKi (at or above 9) and condition not met for low-side pKi (below it).

compound=COc1nc2c(cc1NS(=O)(=O)c1ccc([C@H]3CC[C@@H](OC)CC3)cc1)CCN(C)CC2 class_label="condition not met"
compound="CCN1CCc2cc(NS(=O)(=O)c3ccc4c(c3)CC(C)O4)c(OC)nc2CC1 (stereo not shown)" class_label="condition not met"
compound=COc1nc2c(cc1NS(=O)(=O)c1ccc(C3COC3)cc1)CCN(C)CC2 class_label="condition not met"
compound=CCN1CCc2cc(NS(=O)(=O)c3ccc([C@H]4CCCCO4)c(C)c3)c(OC)nc2CC1 class_label="condition met"
compound=COc1nc2c(cc1NS(=O)(=O)c1ccc(C3(C(F)(F)F)CC3)cc1)CCN(C)CC2 class_label="condition met"
compound="CCN1CCc2cc(NS(=O)(=O)c3ccc(C4CCCCO4)cc3)c(OC)nc2CC1 (single isomer, unassigned) [Example 74]" class_label="condition not met"
compound=CCN1CCc2cc(NS(=O)(=O)c3ccc([C@]4(O)C[C@@H](OC)C4)nc3)c(OC)nc2CC1 class_label="condition not met"
compound="CCN1CCc2cc(NS(=O)(=O)c3ccc(C4CCOC4)cc3)c(OC)nc2CC1 (stereo not shown)" class_label="condition not met"
compound=COc1nc2c(cc1NS(=O)(=O)c1ccc(CC3CCCC3)nc1)CCN(C)CC2 class_label="condition not met"
compound=COc1nc2c(cc1NS(=O)(=O)c1ccc(C3CCCCC3)cc1)CCN(C)CC2 class_label="condition met"
compound=COc1nc2c(cc1NS(=O)(=O)c1ccc([C@@H]3CCCCO3)c(F)c1)CCN(C)CC2 class_label="condition not met"
compound=CCN1CCc2cc(NS(=O)(=O)c3ccc(C)c(F)c3)c(OC)nc2CC1 class_label="condition not met"

These entries and their values trace back to patent US10590128B2.
